Biological target: HLA-B*45:06
Assay: IEDB peptide-MHC binding, purified MHC/competitive/fluorescence; filed as Kd, often an IC50 or EC50 that approximates it; bounds were set here for any values at or beyond the usual limits of such assays
Details: source organism: Escherichia coli F11
pKd: −log10 of the molar value.
assay-metric: pKd

Q: # pKd lookup, item "GLIPQWVTL"
Ans: ≤ 5.30

---

Biological target: HLA-A*26:01
Test: IEDB peptide-MHC binding, purified MHC/direct/fluorescence; filed as Kd, often an IC50 or EC50 that approximates it; bounds were set here for any values at or beyond the usual limits of such assays
Settings: source organism: Rickettsia sibirica 246
assay-metric: Kd

Q: # Kd lookup, item "EFVSANLAM"
Ans: ≥ 20 µM

---

For each record, write down the corresponding log10(Kd).
Biological target: HLA-A*32:01
Assay: IEDB peptide-MHC binding, purified MHC/competitive/radioactivity; filed as Kd, often an IC50 or EC50 that approximates it; bounds were set here for any values at or beyond the usual limits of such assays
Settings: source organism: Vaccinia virus WR
Field: value | Transform: log10 | Quantity: Kd | Unit: nM

Q: # log10(Kd) lookup, item "QSIFRFLNI"
Ans: 2.48

Q: # log10(Kd) lookup, item "RLMSINRGF"
Ans: 0.48

Q: # log10(Kd) lookup, item "IIFDIYFAI"
Ans: -0.03

Q: # log10(Kd) lookup, item "KLNKMTVEL"
Ans: 0.23

Q: # log10(Kd) lookup, item "KTRNVIRNI"
Ans: 2.50

Q: # log10(Kd) lookup, item "NINRLILNF"
Ans: 3.42

---

For each record, write down the corresponding Kd.
Target: HLA-A*68:01
Assay: IEDB peptide-MHC binding, purified MHC/competitive/radioactivity; filed as Kd, often an IC50 or EC50 that approximates it; bounds were set here for any values at or beyond the usual limits of such assays
Conditions: source organism: Dengue virus 2 Jamaica/1409/1983
Lab book: enter the figure in nM, no units written.

Q: # Kd lookup, item "IVSSVNMISR"
Ans: 16.2

Q: # Kd lookup, item "MSTYGWNLVR"
Ans: 24.9

Q: # Kd lookup, item "VTFKNPHAK"
Ans: 133

Q: # Kd lookup, item "TAVAPSMTMR"
Ans: 18.8

Q: # Kd lookup, item "TAMAFHLTTR"
Ans: 8.55

---

Target: HLA-B*40:01
Assay: IEDB peptide-MHC binding, purified MHC/direct/fluorescence; filed as Kd, often an IC50 or EC50 that approximates it; bounds were set here for any values at or beyond the usual limits of such assays
Conditions: source organism: Orthohantavirus hantanense
assay-metric: Kd (nM)
Lab book: enter the figure in nM, no units written.

Q: # Kd lookup, item "EEAIGKVLL"
Ans: 13.7

---

Molecular target: HLA-A*23:01
Assay: IEDB peptide-MHC binding, purified MHC/competitive/radioactivity; filed as Kd, often an IC50 or EC50 that approximates it; bounds were set here for any values at or beyond the usual limits of such assays
Conditions: source organism: Dengue virus 4 Philippines/H241/1956
For each record, write down the corresponding Kd.
Lab book: enter the figure in µM, no units written.

Q: # Kd lookup, item "LLLMRTTWAF"
Ans: 0.694

Q: # Kd lookup, item "VMLLVHYAI"
Ans: 0.0955
